# target: T1, Human VSIG4-S-His (human, UniProt Q9Y279 20-283)
# T1 construct: short isoform ECD with His tag; also called hVSIG4-S; VISG4-S-His
# T1 sequence: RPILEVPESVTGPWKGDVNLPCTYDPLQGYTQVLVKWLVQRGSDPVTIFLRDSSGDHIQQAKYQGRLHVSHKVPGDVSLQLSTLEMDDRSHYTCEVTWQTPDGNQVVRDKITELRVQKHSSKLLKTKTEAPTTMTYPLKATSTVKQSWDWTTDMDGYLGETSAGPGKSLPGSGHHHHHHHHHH
# procedure-details: BLI (Octet), mouse IgG on AMC sensor, antigen 100 nM;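 note: octet Red384 biolayer interferometry with immobilized mouse hybridoma antibodies, 300 s association then 300 s dissociation at 30 °C, isotype-control reference subtraction, 1:1 global fit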
observation-type: pKd
Answers are plain numbers, as −log10 of the molar value.

Incoming: pKd lookup needed for 13E11.A4 murine hybridoma antibody (antibody, V domains shown, murine IgG purified from hybridoma supernatant) VH: EVQLVESGGALVKPGGSLKLSCVASRFNLNNCVMSWIRQTPEKRLEWVATIDSGSIYTYYPDSVKGRFTISRDNAKNTLYLQMSSLRSEDTAVYYCVRHIYGYDVVDNWGQGTTLTVAS VL: DIVMTQSHKFMSTSVGDNVSITCKASQYVSNTVAWYQQKPGQSPKLLIYSASYRNTGVPDRFTGSGSGTNFTFTISNMQAEDLAFYYCQQHYTSPLTFGAGTKLELK , thanks.
Outgoing: 8.30

Where do the numbers come from? From patent US20230348603A1.
